Test system: RPMI-8226 leukemia
Test: NCI-60 one-dose screen, 48 h (100 = growth as untreated, 0 = no growth, -100 = all killed)
Conditions: 10 µM unless noted
Compounds without any hit were thinned out: in the full panel of roughly 83,000, 20% have a hit.

| COMPOUND | TESTED_SYSTEM | UNIT_ABBREVIATION | growth |
| --- | --- | --- | --- |
| COc1cc(OC)c(Cl)cc1N | RPMI-8226 leukemia | % | 104 |
| COc1ccc2[nH]cc(C3(c4c[nH]c5ccc(OC)cc45)C(=O)Nc4ccc(F)cc43)c2c1 | RPMI-8226 leukemia | % | 40.9 |
| Clc1nnc2c3ccccc3ccn12 | RPMI-8226 leukemia | % | 99.6 |
| O=C(Nc1cccc(N=Cc2c(O)ccc3ccccc23)c1)c1ccccc1 | RPMI-8226 leukemia | % | 94.6 |
| O=C(CCl)Nc1ccc2c(c1)C(=O)c1ccccc1C2=O | RPMI-8226 leukemia | % | -59.1 |
| COc1ccc(/C=N/NC(N)=S)c(OC)n1 | RPMI-8226 leukemia | % | 94.8 |
| Cc1cc([N+](=O)[O-])c(C)cc1N | RPMI-8226 leukemia | % | 96.5 |
| Clc1ccc(-c2nc(-c3cccs3)no2)cc1 | RPMI-8226 leukemia | % | 95.3 |
| C[C@@H]1N=C(c2ccc3ccccc3c2)Nc2nc3ccccn3c2C1=O | RPMI-8226 leukemia | % | 43.8 |
| CCC1N=C(N)N=C(N)N1c1ccc(Cl)cc1 (configuration not stated) | RPMI-8226 leukemia | % | 87.5 |
| O=C1OC(/C=C/c2ccccc2)=NC/1=C/c1ccccc1[N+](=O)[O-] | RPMI-8226 leukemia | % | 91.9 |
| Clc1ccccc1CNc1c2ccccc2nc2ccccc12 | RPMI-8226 leukemia | % | -26.9 |

###

System: UACC-62 melanoma
Test: NCI-60 one-dose screen, 48 h (100 = growth as untreated, 0 = no growth, -100 = all killed)
Conditions: 10 µM unless noted
The panel holds about 83,000 compounds, 20% with a hit somewhere; the sample as a whole holds those more often.
We'd kindly ask you to apply these growth classes: low interval: < 40%; middle interval: ≥ 40% and < 90%; high interval: ≥ 90%

| COMPOUND | CLASSIFICATION |
| --- | --- |
| CCCCCCCCCCCCNC(=O)N[C@H](C(=O)N[C@H]1/C=C/CCNC(=O)/C=C/[C@H](C)NC1=O)C(C)C | low interval |
| NC(N)=N/N=C/c1ccc(Cl)cc1 | middle interval |
| CC(C)CCSc1nc(-c2ccc(F)cc2)c(C#N)c(N2CCN(C)CC2)n1 | middle interval |
| CC1=C(/C=C/C(C)=C/C=C(C(=O)O)\C(C)=C\C(=O)O)C(C)(C)CCC1 | high interval |
| CC(C)(c1ccccc1)c1cc(O)c(C(C)(C)c2ccccc2)cc1O | low interval |
| CC(C)(C)c1nn(-c2ccccc2)c2c1C(=O)CSC(c1ccc3c(c1)OCO3)N2 (stereo unspecified) | middle interval |
| O=C1OCC2=C1C(c1ccccc1)c1cc3c(cc1N2CCO)CCC3 (stereo unspecified) | low interval |
| CCOC(=O)C(Cc1ccccc1)n1c(O)c(/C=N/c2ncc(Cc3ccc(Cl)cc3Cl)s2)sc1=S (stereo unspecified) | low interval |
| Cc1ccc(C)c2c1SC1=NNC(Oc3ccc(Cl)cc3)=C(C#N)C(=N)N12 | high interval |
| COc1cc(/C=C2\CN(C(=O)OC(C)(C)C)C/C(=C\c3ccc(O)c(OC)c3)C2=O)ccc1O | middle interval |
| COc1cc(C2CC(c3ccc(Cl)cc3)=NN2C=O)ccc1Oc1ccnc2cc(Cl)ccc12 (stereo unspecified) | middle interval |
| COc1cnc2c(c1)C(=O)c1c-2n(CCCN2CCN(C)CC2)c(=O)c2cc(Cl)ccc12 | low interval |
| O=c1nc(-c2ccccc2)c2cc(-c3ccc(N4CCOCC4)cc3)ccc2[nH]1 | middle interval |
| CCS(=O)(=O)Nc1cccc(Nc2c3cccc(C)c3nc3c(C)cccc23)c1OC | middle interval |
| Cc1ccccc1NC(=O)c1sc2nc3c(cc2c1N)C(=O)CCC3 | low interval |
| O=C(Nc1ccc(Br)cc1)c1ccc(Cl)c(Cl)c1 | middle interval |
| CC(C)N(C(=S)SSC(=S)N(C(C)C)C(C)C)C(C)C | high interval |
| CCCCSc1ncnc2c1ncn2C1CCCCO1 (stereo unspecified) | high interval |
| COc1ccc(-c2ccc(-c3ccc(C(=N)N)s3)s2)cc1 | low interval |

###

System: SF-268 CNS
Test: NCI-60 one-dose screen, 48 h (100 = growth as untreated, 0 = no growth, -100 = all killed)
Conditions: 10 µM unless noted
The panel holds about 83,000 compounds, 20% with a hit somewhere; the sample as a whole holds those more often.

| COMPOUND | UNIT_ABBREVIATION | growth |
| --- | --- | --- |
| CCC1=CC2CN(C1)Cc1c([nH]c3ccccc13)[C@@](C(=O)OC)(c1cc3c(cc1OC)N(C)[C@H]1[C@@](O)(C(=O)OC)[C@H](OC(C)=O)[C@]4(CC)C=CCN5CC[C@]31[C@@H]54)C2 (some centres not stated) | % | 17.4 |
| CCn1c(Cc2ccccc2Nc2c(Cl)cccc2Cl)nnc1SCC(=O)Nc1cccc(OC)c1 | % | 82.1 |
| COc1cccc(-c2cc(-c3cccs3)c(C#N)c(=O)[nH]2)c1 | % | 104 |
| CCN1C(=O)/C(=C/N2N=C(c3ccc(Cl)cc3)CC2c2ccc(OC)cc2)SC1=S (configuration not stated) | % | 95.2 |
| CC(C)c1nc2ccccc2n1CC(=O)N/N=C/c1cccc(O)c1 | % | 99.2 |
| COc1ccc(C(=O)OC2C(OC3C(O)COC(O[C@H]4C[C@H]5[C@@H]6CC=C7C[C@@H](O)CC[C@]7(C)[C@H]6CC[C@]5(C)[C@H]4[C@H](C)C(=O)CCC(C)C)C3OC(=O)C(C)C)OCC(O)C2O)cc1 (some centres not stated) | % | -9.13 |
| O=[N+]([O-])c1ccc(SSc2ccc([N+](=O)[O-])cc2Cl)c(Cl)c1 | % | 103 |

###

Test system: TK-10 renal
Experiment: NCI-60 one-dose screen, 48 h (100 = growth as untreated, 0 = no growth, -100 = all killed)
Settings: 10 µM unless noted
This is part of a sample that, as a whole, favours compounds with a hit. Of some 83,000 tested, about 20% had one in any assay.
RECORDED_METRIC: growth (%)

| MOLECULE | MEASUREMENT |
| --- | --- |
| O=C1/C(=C/c2ccccc2)SC(=Nc2ccccc2)N1Nc1ccccc1 | 31.4 |
| ClC1=NC(Cl)C(Cl)=N/C1=N\c1ncn[nH]1 (stereo unspecified) | -75.9 |
| C[Si](C)(C)C(c1ccccc1)c1ccccc1 | 108 |
| COc1cnc2c(c1)C(=O)c1c-2n(CCCN2CCN(C)CC2)c(=O)c2cc(Cl)ccc12 | 48.5 |
| CCN(CC)CC(=O)Nc1c(C)cc(C(=O)NN)cc1C | 102 |
| CCCCCCCCCCCC1=NC(C)(C)CN1CCO | 92.6 |
| O=C(O/C(=C/c1ccccc1)C(F)(F)F)c1ccccc1 | 103 |
| O=C(Nc1ccc(Br)cc1)Nc1cccc(Br)c1 | 29.2 |
| Cc1cc(Nc2c3ccccc3nc3ccccc23)ccc1NS(C)(=O)=O | 56 |
| Clc1ccc(Cl)c(N=Cc2ccc3c(c2)OCO3)c1 | 107 |
| COc1ccc2nc(-c3ccc(-c4noc(-c5ccc(Cl)cc5)n4)cc3)[nH]c2c1 | 120 |

###

System: SK-MEL-28 melanoma
Test: NCI-60 one-dose screen, 48 h
Settings: 10 µM unless noted
The panel holds about 83,000 compounds, 20% with a hit somewhere; the sample as a whole holds those more often. Active and inactive are the calls of the source. How the source made its calls: active means growth percent below 10; inactive means the rest.
Outcome codes: active, inactive

| COMPOUND | CLASSIFICATION |
| --- | --- |
| C=CCN1C(=O)/C(=c2\sc3n(c2=O)C2C(NN=3)N(CC)C(=O)N2CC)c2ccccc21 (stereo not drawn) | inactive |
| O=[N+]([O-])c1ccc(N/N=C/c2ccccc2O)nc1 | inactive |
| ClCCn1cnc2c(SCc3ccccc3Cl)ncnc21 | inactive |
| c1coc(CNc2c3ccccc3nc3ccccc23)c1 | inactive |
| Brc1ccsc1Br | inactive |
| COc1cc(NC(=O)CSc2nc3ccc(Cl)cc3c(=O)n2-c2ccccc2)cc(OC)c1OC | inactive |
| CCSc1cnnc2ccccc12 | inactive |
| O=C1N(Cc2ccccc2Cl)c2ccccc2C12NN=C(c1ccccc1)S2 (stereo not drawn) | inactive |
| C=CCOC(=O)C1=C(C)NC2=C(C(=O)CCC2)C1c1ccc(F)cc1 (stereo not drawn) | inactive |
| N=C(N)c1ccc(NCCNc2ccc(C(=N)N)cc2)cc1 | inactive |
| COc1ccc(-c2nc3ccccc3n3cccc23)cc1 | inactive |
| c1ccc2c(N=NSc3ncnc4nc[nH]c34)c3ccccc3nc2c1 | active |
| COc1ccc(-c2nc(SCCC(C)C)nc(Nc3ccc(C(=O)O)cc3)c2C#N)cc1 | inactive |
| CC(C)(c1ccccc1)c1cc(O)c(C(C)(C)c2ccccc2)cc1O | inactive |
| CSC1=N/C(=C\c2cccc(OCc3ccc(Cl)cc3)c2)C(=O)N1 | inactive |
| ClC1(Cl)C2CCCCCCC21 (stereo not drawn) | inactive |
| COc1ccc(-c2cc(C(=O)Nc3ccc(C)cc3)nc3[nH]c(=O)sc23)cc1 | inactive |
| CS(=O)(=O)c1ccc(C(=O)Nc2ccc(Cl)c(-c3ccccn3)c2)c(Cl)c1 | inactive |
| COc1ccc2[nH]cc(C3(c4c[nH]c5ccc(OC)cc45)C(=O)Nc4ccc(F)cc43)c2c1 | inactive |
| Cc1[nH]c2ccccc2c1C1=CC(=O)C=CC1=O | inactive |
| Oc1c(C(Nc2ccccc2Br)c2ccccc2)ccc2cccnc12 (stereo not drawn) | inactive |
| CC1=CCC2C1CC=C(C)C(CC[C@H]1[C@@](C)(O)CCC3OC(C)(C)[C@H](OC(=O)c4ccccc4)CC[C@@]31C)C2(C)C (stereo partly drawn) | inactive |
| Cc1ccncc1NC=O | inactive |
